Value source: paper PMC11642016

# Tested on: Fadu cells
# MEASUREMENT PROTOCOL: CellTiter-Glo luminescent cell viability assay, Fadu
# CONDITION LABEL: 5.1 μM; 72 h; dose–response, individual replicates
PARAMETER MEASURED: Fadu Cell viability (% of controll)

Record excerpt, results attached:
NCC#Cc1ccc(CN2C(=O)C3=C(CCN(Cc4ccc(-n5cc(-c6ccccc6)nn5)cc4)C3)N3CCN=C23)cc1 [I/B, reference compound]	107 % of controll
Cc1ccccc1CN1C(=O)C2=C(CCN(Cc3ccccc3)C2)N2CCN=C12 [ONC201, reference compound]	26 % of controll
CNCC#Cc1cccc(CN2C(=O)C3=C(CCN(Cc4ccc(-n5cc(-c6cc(F)cc(F)c6)nn5)cc4)C3)N3CCN=C23)c1 [43c]	0 % of controll

Now for another entry.
So for CNCC#Cc1cccc(CN2C(=O)C3=C(CCN(Cc4ccc(-n5cc(-[c-]6cccc6)nn5)cc4)C3)N3CCN=C23)c1.[Fe+2].c1cc[cH-]c1 [38a] , the logged Fadu Cell viability (% of controll) turned out to be 0 % of controll

====

# MEASUREMENT PROTOCOL: CellTiter-Glo cell viability assay, HEK293T WT
# CONDITION LABEL: human, HEK293T WT cells, HEK293T WT Cell viability (% of controll), 0.4 μM; 72 h; dose–response, individual replicates
PARAMETER MEASURED: viability at 72 h, 0.4 µM (%)
Write the answer as a number in %, unit excluded.

So for CNCC#Cc1cccc(CN2C(=O)C3=C(CCN(Cc4ccc(-n5cc(-c6ccccc6)nn5)cc4)C3)N3CCN=C23)c1 [38b] , the logged viability at 72 h, 0.4 µM turned out to be 121

====

Quick reference for Cell Viability (% of Control) 2.8 µM among some molecules
# System: Fadu cells
# MEASUREMENT PROTOCOL: CellTiter-Glo luminescent cell viability assay, Fadu
# CONDITION LABEL: Fadu; 2.8 µM; 72 h; first-set screening; mean ± SD, n = 2

NCC#Cc1cccc(CN2C(=O)C3=C(CCN(Cc4cccc(-n5cc(-[c-]6cccc6)nn5)c4)C3)N3CCN=C23)c1.[Fe+2].c1cc[cH-]c1	102 ± 1 % of Control

So for NCC#Cc1ccc(CN2C(=O)C3=C(CCN(Cc4ccc(-n5cc(-[c-]6cccc6)nn5)cc4)C3)N3CCN=C23)cc1.[Fe+2].c1cc[cH-]c1 [I/A, reference compound] , the logged Cell Viability (% of Control) 2.8 µM turned out to be 105 ± 9 % of Control

So for O=C1C2=C(CCN(Cc3cccc(-n4cc(-[c-]5cccc5)nn4)c3)C2)N2CCN=C2N1Cc1ccc(C#CCO)cc1.[Fe+2].c1cc[cH-]c1 , the logged Cell Viability (% of Control) 2.8 µM turned out to be 103 ± 9 % of Control

So for NCC#Cc1cccc(CN2C(=O)C3=C(CCN(Cc4ccc(-n5cc(-[c-]6cccc6)nn5)cc4)C3)N3CCN=C23)c1.[Fe+2].c1cc[cH-]c1 , the logged Cell Viability (% of Control) 2.8 µM turned out to be 107 ± 5 % of Control

So for O=C1C2=C(CCN(Cc3ccc(-n4cc(-[c-]5cccc5)nn4)cc3)C2)N2CCN=C2N1Cc1cccc(C#CCO)c1.[Fe+2].c1cc[cH-]c1 , the logged Cell Viability (% of Control) 2.8 µM turned out to be 79 ± 2 % of Control

So for O=C1C2=C(CCN(Cc3ccc(-n4cc(-[c-]5cccc5)nn4)cc3)C2)N2CCN=C2N1Cc1ccc(C#CCO)cc1.[Fe+2].c1cc[cH-]c1 , the logged Cell Viability (% of Control) 2.8 µM turned out to be 88 ± 4 % of Control

So for NCC#Cc1ccc(CN2C(=O)C3=C(CCN(Cc4cccc(-n5cc(-[c-]6cccc6)nn5)c4)C3)N3CCN=C23)cc1.[Fe+2].c1cc[cH-]c1 , the logged Cell Viability (% of Control) 2.8 µM turned out to be 104 ± 5 % of Control

====

Quick reference for viability at 72 h, 5.1 µM among some compounds
# MEASUREMENT PROTOCOL: CellTiter-Glo luminescent cell viability assay, primary fibroblasts
# CONDITION LABEL: human, primary skin fibroblasts (non-tumorous), Primer fibroblast Cell viability (% of controll), 5.1 μM; 72 h; dose–response, individual replicates
Write the answer as a number in %, unit excluded.

Record excerpt, results attached:
CNCC#Cc1cccc(CN2C(=O)C3=C(CCN(Cc4ccc(-n5cc(-c6cc(F)cc(F)c6)nn5)cc4)C3)N3CCN=C23)c1 [43c]	0
CNCC#Cc1cccc(CN2C(=O)C3=C(CCN(Cc4ccc(-n5cc(-c6ccc(F)cc6)nn5)cc4)C3)N3CCN=C23)c1 [43b]	0
CNCC#Cc1cccc(CN2C(=O)C3=C(CCN(Cc4ccc(-n5cc(-c6ccccc6)nn5)cc4)C3)N3CCN=C23)c1 [38b]	6
NCC#Cc1ccc(CN2C(=O)C3=C(CCN(Cc4ccc(-n5cc(-c6ccccc6)nn5)cc4)C3)N3CCN=C23)cc1 [I/B, reference compound]	104

Now for another entry.
So for CNCC#Cc1cccc(CN2C(=O)C3=C(CCN(Cc4ccc(-n5cc(-c6cccc(F)c6)nn5)cc4)C3)N3CCN=C23)c1 [43a] , the logged viability at 72 h, 5.1 µM turned out to be 0

====

# MEASUREMENT PROTOCOL: CellTiter-Glo luminescent cell viability assay, primary fibroblasts
# CONDITION LABEL: human, primary skin fibroblasts (non-tumorous), Primer fibroblast Cell viability (% of controll), 1 μM; 72 h; dose–response, individual replicates
Quick reference for viability at 72 h, 1 µM among some compounds
Write the answer as a number in %, unit excluded.

Record excerpt, results attached:
NCC#Cc1ccc(CN2C(=O)C3=C(CCN(Cc4ccc(-n5cc(-c6ccccc6)nn5)cc4)C3)N3CCN=C23)cc1 [I/B, reference compound]	99
CNCC#Cc1cccc(CN2C(=O)C3=C(CCN(Cc4ccc(-n5cc(-c6cccc(F)c6)nn5)cc4)C3)N3CCN=C23)c1 [43a]	109
CNCC#Cc1cccc(CN2C(=O)C3=C(CCN(Cc4ccc(-n5cc(-c6ccc(F)cc6)nn5)cc4)C3)N3CCN=C23)c1 [43b]	102
CNCC#Cc1cccc(CN2C(=O)C3=C(CCN(Cc4ccc(-n5cc(-c6ccccc6)nn5)cc4)C3)N3CCN=C23)c1 [38b]	112

So for CNCC#Cc1cccc(CN2C(=O)C3=C(CCN(Cc4ccc(-n5cc(-c6cc(F)cc(F)c6)nn5)cc4)C3)N3CCN=C23)c1 [43c] , the logged viability at 72 h, 1 µM turned out to be 92

====

# Tested on: PANC-1 cells
# MEASUREMENT PROTOCOL: CellTiter-Glo luminescent cell viability assay, PANC-1
# CONDITION LABEL: PANC-1; 2.8 µM; 72 h; first-set screening; mean ± SD, n = 2
PARAMETER MEASURED: Cell Viability (% of Control) 2.8 µM

Record excerpt, results attached:
NCC#Cc1cccc(CN2C(=O)C3=C(CCN(Cc4ccc(-n5cc(-[c-]6cccc6)nn5)cc4)C3)N3CCN=C23)c1.[Fe+2].c1cc[cH-]c1	92 ± 2 % of Control
O=C1C2=C(CCN(Cc3ccc(-n4cc(-[c-]5cccc5)nn4)cc3)C2)N2CCN=C2N1Cc1cccc(C#CCO)c1.[Fe+2].c1cc[cH-]c1	94 ± 2 % of Control
O=C1C2=C(CCN(Cc3ccc(-n4cc(-[c-]5cccc5)nn4)cc3)C2)N2CCN=C2N1Cc1ccc(C#CCO)cc1.[Fe+2].c1cc[cH-]c1	92 ± 0 % of Control
NCC#Cc1ccc(CN2C(=O)C3=C(CCN(Cc4ccc(-n5cc(-[c-]6cccc6)nn5)cc4)C3)N3CCN=C23)cc1.[Fe+2].c1cc[cH-]c1 [I/A, reference compound]	108 ± 4 % of Control
O=C1C2=C(CCN(Cc3cccc(-n4cc(-[c-]5cccc5)nn4)c3)C2)N2CCN=C2N1Cc1ccc(C#CCO)cc1.[Fe+2].c1cc[cH-]c1	100 ± 3 % of Control

So for NCC#Cc1cccc(CN2C(=O)C3=C(CCN(Cc4cccc(-n5cc(-[c-]6cccc6)nn5)c4)C3)N3CCN=C23)c1.[Fe+2].c1cc[cH-]c1 , the logged Cell Viability (% of Control) 2.8 µM turned out to be 91 ± 4 % of Control

So for NCC#Cc1ccc(CN2C(=O)C3=C(CCN(Cc4cccc(-n5cc(-[c-]6cccc6)nn5)c4)C3)N3CCN=C23)cc1.[Fe+2].c1cc[cH-]c1 , the logged Cell Viability (% of Control) 2.8 µM turned out to be 101 ± 7 % of Control

====

# Tested on: PANC-1 cells
# MEASUREMENT PROTOCOL: CellTiter-Glo luminescent cell viability assay, PANC-1
# CONDITION LABEL: PANC-1; 2.8 µM; 72 h; second-set screening; mean ± SD, n = 2
PARAMETER MEASURED: Cell Viability (% of Control) 2.8 µM

NCc1cccc(CN2C(=O)C3=C(CCN(Cc4ccc(-n5cc(-[c-]6cccc6)nn5)cc4)C3)N3CCN=C23)c1.[Fe+2].c1cc[cH-]c1 [37a]	118 ± 4 % of Control
NCC#Cc1cccc(CN2C(=O)C3=C(CCN(Cc4ccc(C(=O)N[c-]5cccc5)cc4)C3)N3CCN=C23)c1.[Fe+2].c1cc[cH-]c1 [33a]	102 ± 9 % of Control
O=C1C2=C(CCN(Cc3ccc(-n4cc(-[c-]5cccc5)nn4)cc3)C2)N2CCN=C2N1Cc1cccc(C#CCN2CCOCC2)c1.[Fe+2].c1cc[cH-]c1 [42a]	132 ± 4 % of Control

So for NCC#Cc1cccc(CN2C(=O)C3=C(CCN(Cc4ccc(-n5cc(-[c-]6cccc6)nn5)cc4)C3)N3CCN=C23)c1.[Fe+2].c1cc[cH-]c1 , the logged Cell Viability (% of Control) 2.8 µM turned out to be 117 ± 4 % of Control

So for NCC#Cc1ccc(CN2C(=O)C3=C(CCN(Cc4ccc(-n5cc(-[c-]6cccc6)nn5)cc4)C3)N3CCN=C23)cc1.[Fe+2].c1cc[cH-]c1 [I/A, reference compound] , the logged Cell Viability (% of Control) 2.8 µM turned out to be 108 ± 4 % of Control

So for CN(C)CC#Cc1cccc(CN2C(=O)C3=C(CCN(Cc4ccc(-n5cc(-[c-]6cccc6)nn5)cc4)C3)N3CCN=C23)c1.[Fe+2].c1cc[cH-]c1 [39a] , the logged Cell Viability (% of Control) 2.8 µM turned out to be 112 ± 7 % of Control
